A collection of binders and their measured kon
- measured-on: T1, recombinant human domain 1-3His6 of the cation-independent mannose-6-phosphate receptor (human, UniProt P11717 41-467)
- T1 construct: Biotinylated (NHS-PEG4-biotin) for BLI; Glycosylated; also called hDom1-3His6; hCI-M6PRD1-D3
- protocol-details: BLI exp 1, dissoc pH 5
The number alone won't do; follow it with the unit.

Some entries whose results are on file:
binder	readout	result
anti-CI-M6PR VHH9 (VHH, His6-tagged; made in Pichia pastoris) VHH: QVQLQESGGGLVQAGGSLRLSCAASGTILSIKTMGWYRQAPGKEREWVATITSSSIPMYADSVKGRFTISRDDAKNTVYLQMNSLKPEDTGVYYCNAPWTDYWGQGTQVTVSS	kon	590000 M⁻¹ s⁻¹
anti-CI-M6PR VHH2 (VHH, His6-tagged; made in Pichia pastoris) VHH: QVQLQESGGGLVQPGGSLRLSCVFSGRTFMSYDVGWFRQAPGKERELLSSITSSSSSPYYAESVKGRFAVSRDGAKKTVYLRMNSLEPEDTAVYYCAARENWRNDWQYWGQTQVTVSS	kon	745000 M⁻¹ s⁻¹

Now consider the entry below.
Prompt: Read off the recorded kon for anti-CI-M6PR VHH3 (VHH, His6-tagged; made in Pichia pastoris) VHH: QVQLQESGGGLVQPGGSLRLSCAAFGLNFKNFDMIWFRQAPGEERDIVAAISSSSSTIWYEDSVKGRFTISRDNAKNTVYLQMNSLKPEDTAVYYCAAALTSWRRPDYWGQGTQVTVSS
Completion: 1.1e+06 M⁻¹ s⁻¹

Recorded values, source patent US20250263490A1.
